System: Raji human HLA-DR10 expressing lymphoma cells
Test: Cytotoxicity assay (trypan blue) in Raji cell culture
Assay type: cell-based
Details: biotinylated tridentate SHAL; determined at 2 days; read-out: IC50 SHAL cytotoxic concentration
pIC50: −log10 of the molar value.

>  <molecule>
CC(C)C(NS(=O)(=O)c1ccc(N=Nc2ccc(N(C)C)cc2)cc1)C(=O)NCCOCCOCC(=O)NC(CCCCNC(=O)C(CCCCNC(=O)CC(=O)Nc1ccccc1Oc1ncc(C(F)(F)F)cc1Cl)NC(=O)COCCOCCNC(=O)c1ccc(N2CCN(Cc3ccc(Cl)cc3)CC2)c([N+](=O)[O-])c1)C(=O)NCCOCCOCC(=O)NC(CCCCNC(=O)CN1CCN(CC(=O)O)CCN(CC(=O)O)CCN(CC(=O)O)CC1)C(=O)O (stereo not shown) [tridentate SHAL]

>  <pIC50>
8.60

$$$$

---

System: Raji human HLA-DR10 expressing lymphoma cells
Test: Cytotoxicity assay (trypan blue) in Raji cell culture
Format: cell-based
Conditions: Raji cell culture; read-out: IC50 concentration for cytotoxic activity
experimental.readout: IC50

>  <compound>
CC(C)C(NS(=O)(=O)c1ccc(N=Nc2ccc(N(C)C)cc2)cc1)C(=O)NCCOCCOCC(=O)NC(CCCCNC(=O)C(CCCCNC(=O)CC(=O)Nc1ccccc1Oc1ncc(C(F)(F)F)cc1Cl)NC(=O)COCCOCCNC(=O)c1ccc(N2CCN(Cc3ccc(Cl)cc3)CC2)c([N+](=O)[O-])c1)C(=O)NCCOCCOCC(=O)NC(CCCCNC(=O)CN1CCN(CC(=O)O)CCN(CC(=O)O)CCN(CC(=O)O)CC1)C(=O)O (stereo not shown) [tridentate SHAL]

>  <value.reported>
2.5 nM

$$$$
